Biological target: NS5B from the BK strain (genotype 1b) (Hepatitis C virus genotype 1b, UniProt P26663)
Construct: NS5B from the BK strain (genotype 1b) is expressed in E. coli as a protein in which the 21 C-terminal amino acids are replaced; made in house; host or cells: E. coli
Sequence (P26663 2420-2989): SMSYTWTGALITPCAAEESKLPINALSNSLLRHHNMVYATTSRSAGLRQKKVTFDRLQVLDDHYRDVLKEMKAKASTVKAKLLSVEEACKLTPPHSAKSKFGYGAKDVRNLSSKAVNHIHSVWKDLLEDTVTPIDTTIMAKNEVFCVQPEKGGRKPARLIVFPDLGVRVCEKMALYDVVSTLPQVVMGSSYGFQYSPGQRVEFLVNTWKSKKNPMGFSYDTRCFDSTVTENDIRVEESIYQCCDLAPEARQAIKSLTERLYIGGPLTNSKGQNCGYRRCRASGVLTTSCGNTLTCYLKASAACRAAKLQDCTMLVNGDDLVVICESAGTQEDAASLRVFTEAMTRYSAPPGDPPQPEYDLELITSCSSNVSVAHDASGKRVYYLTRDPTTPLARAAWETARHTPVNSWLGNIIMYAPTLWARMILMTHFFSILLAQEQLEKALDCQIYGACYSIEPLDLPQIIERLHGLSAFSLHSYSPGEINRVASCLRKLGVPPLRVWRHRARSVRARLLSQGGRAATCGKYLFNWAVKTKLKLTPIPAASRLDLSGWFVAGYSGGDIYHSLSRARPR
Assay: Hepatitis C polymerase inhibition, NS5B BK strain, 33P-GTP filter assay
Type: biochemical
Conditions: Table 1A; NS5B BK strain; read-out: HCV pol BK IC50
assayEndpoint: IC50 (nM)
Express the result in nM but write the number alone.

Known IC50 results, listed for orientation:
- CCCC1(CC(=O)O)OCCc2c1[nH]c1c(Cl)cc(C)c(Br)c21 (centres unmarked): 500
- CCC1(CC(=O)O)OCCc2c1[nH]c1c(F)cc(C)c(Br)c21 (centres unmarked): 2000

Consider the additional compound presented here.
Incoming: Consider the compound shown here: CCC1(CC(=O)O)OCCc2c1[nH]c1c(C)cc(F)c(Br)c21 (centres unmarked) What is its recorded IC50?
Outgoing: 2100

----------
Biological target: NS5B from the BK strain (genotype 1b) (Hepatitis C virus genotype 1b, UniProt P26663)
Construct: NS5B from the BK strain (genotype 1b) is expressed in E. coli as a protein in which the 21 C-terminal amino acids are replaced; made in house; host or cells: E. coli
Experiment: Hepatitis C polymerase inhibition, NS5B BK strain, 33P-GTP filter assay
Type: biochemical
Settings: Table 1A; NS5B BK strain; read-out: HCV pol BK IC50
pIC50: −log10 of the molar value.
Note to self: values exactly at 6 are Fulfilled. So pIC50 at or above 6 is Fulfilled, below is Not fulfilled.

* C=CCn1c2c(c3c(Cl)ccc(Cl)c31)CCOC2(CCC)CC(=O)O (stereo not drawn) | Not fulfilled

Incoming: Textbook exercise: given the entry CCCC1(CC(=O)O)OCCc2c1[nH]c1c(F)cc(F)c(C#N)c21 (stereo not drawn) , state whether its pIC50 is greater than or equal to 6.
Outgoing: Fulfilled

Incoming: Could you tell me if the measured pIC50 of CCCC1(CC(=O)O)OCCc2c1[nH]c1cccc(-c3ccc4ccccc4c3)c21 (stereo not drawn) reaches 6 or more?
Outgoing: Not fulfilled

Incoming: Is it the case that CCCC1(CC(=O)O)OCCc2c1[nH]c1c(C)ccc(Br)c21 (stereo not drawn) has pIC50 reaching or exceeding 6?
Outgoing: Fulfilled

----------
Molecular target: NS5B from the BK strain (genotype 1b) (Hepatitis C virus genotype 1b)
Construct: NS5B from the BK strain (genotype 1b) is expressed in E. coli as a protein in which the 21 C-terminal amino acids are replaced; made in house; host or cells: E. coli
Assay: Hepatitis C polymerase inhibition, NS5B BK strain, 33P-GTP filter assay
Assay type: biochemical
Details: Table 1A; NS5B BK strain; read-out: HCV pol BK IC50
pIC50: −log10 of the molar value.
assayEndpoint: pIC50

- CCCC1(CC(=O)O)OCCc2c1[nH]c1c(Cl)ccc(C(F)(F)F)c21 (stereo not drawn): 6.49

Incoming: Query (compound): CCCC1(CC(=O)O)OCCc2c1[nH]c1c(F)ccc(C(=O)N3CCOCC3)c21 (stereo not drawn) ; field requested: pIC50
Outgoing: < 4.70

Incoming: Request the reported pIC50 associated with CCCC1(CC(=O)O)OCCc2c1[nH]c1c(F)cc(C)c(Br)c21 (stereo not drawn)
Outgoing: 6.22

Incoming: What value of measured pIC50 is listed for CCCC1(CC(=O)O)OCCc2c1[nH]c1c(-c3ccc(Cl)cc3)cccc21 (stereo not drawn) ?
Outgoing: < 4.70

----------
Target: NS5B from the BK strain (genotype 1b) (Hepatitis C virus genotype 1b)
Construct: NS5B from the BK strain (genotype 1b) is expressed in E. coli as a protein in which the 21 C-terminal amino acids are replaced; made in house; host or cells: E. coli
Test: Hepatitis C polymerase inhibition, NS5B BK strain, 33P-GTP filter assay
Type: biochemical
Conditions: Table 1A; NS5B BK strain; read-out: HCV pol BK IC50
assayEndpoint: IC50

Use the examples below as a reference point.
- CCCC1(CC(=O)O)OCCc2c1[nH]c1cccc(-c3ccccc3Cl)c21 (stereo not drawn) [Example 44]: > 20 µM
- Cc1cc(Cl)c2[nH]c3c(c2c1Br)CCOC3(CC(=O)O)C(C)C (stereo not drawn) [Example 176]: > 5 µM
- CC(C)C1(CC(=O)O)OCCc2c1[nH]c1c(C(F)(F)F)cccc21 (stereo not drawn) [Example 118]: > 20 µM

Incoming: Endpoint output: IC50 of Cc1cc(F)c(Br)c2c3c([nH]c12)C(C)(CC(=O)O)OCC3 (stereo not drawn) [Example 199] . Value?
Outgoing: > 5 µM

Incoming: Using the record for CCC1(CC(=O)O)OCCc2c1[nH]c1c(F)cc(F)c(C#N)c21 (stereo not drawn) [Example 194] , report its IC50.
Outgoing: > 5 µM

Incoming: Item under review: CCCC1(CC(=O)O)OCCc2c1[nH]c1cccc(Cl)c21 (stereo not drawn) [Example 14] . Reported IC50?
Outgoing: 11 µM

Incoming: For the compound CCC1(CC(=O)O)OCCc2c1[nH]c1c(F)ccc(F)c21 (stereo not drawn) [Example 123] , what IC50 is on record?
Outgoing: > 20 µM

Incoming: Requested read-out: IC50. Entry: CCCC1(CC(=O)O)OCCc2c1[nH]c1cccc(-c3ccccc3OC)c21 (stereo not drawn) [Example 43]
Outgoing: > 20 µM

Incoming: IC50 for CCCCC1(CC(=O)O)OCCc2c1[nH]c1c(C)cc(F)c(Br)c21 (stereo not drawn) [Example 203] ?
Outgoing: 0.19 µM

----------
Target: BB7 (RNA-dependent RNA polymerase hepatitis C virus protein sequence derived from HCV replicon) (Hepatitis C virus genotype 1b)
Sequence (Q9WMX2 2420-3010): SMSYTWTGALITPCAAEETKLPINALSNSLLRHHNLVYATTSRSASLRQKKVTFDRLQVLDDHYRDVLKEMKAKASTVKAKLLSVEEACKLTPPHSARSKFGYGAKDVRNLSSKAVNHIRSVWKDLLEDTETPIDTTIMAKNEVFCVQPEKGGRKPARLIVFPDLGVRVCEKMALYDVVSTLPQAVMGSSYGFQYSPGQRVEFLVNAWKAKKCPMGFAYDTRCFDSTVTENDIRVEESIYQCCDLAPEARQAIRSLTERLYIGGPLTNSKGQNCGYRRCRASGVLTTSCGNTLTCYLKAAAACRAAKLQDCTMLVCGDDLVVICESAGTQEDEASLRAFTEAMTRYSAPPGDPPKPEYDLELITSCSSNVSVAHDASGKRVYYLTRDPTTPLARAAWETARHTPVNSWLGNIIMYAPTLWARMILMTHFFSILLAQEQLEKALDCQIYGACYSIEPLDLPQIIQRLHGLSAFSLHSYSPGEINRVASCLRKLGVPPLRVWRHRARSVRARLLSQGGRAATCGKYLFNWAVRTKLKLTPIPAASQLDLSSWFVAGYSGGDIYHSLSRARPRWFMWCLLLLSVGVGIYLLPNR
assayEndpoint: IC50 (µM)
Numbers only; they are read as µM.

// solved cases for IC50 follow
* O=C(O)CC1(C2CCC2)OCCc2c1[nH]c1c(Cl)ccc(C(F)(F)F)c21 (centres unmarked) | 2.3
* CCCNC(=O)c1cc(C#N)c2c3c([nH]c2c1C)C(CCC)(CC(=O)O)OCC3 (centres unmarked) | 2
* CC[C@H](C)[C@]1(CC(=O)O)OCCc2c1[nH]c1c(C)cc(F)c(C#N)c21 | 6
* CCCC1(CC(=O)O)OCCc2c1[nH]c1c(C(F)(F)F)ccc(C(F)(F)F)c21 (centres unmarked) | 3.5
* CSCC1(CC(=O)O)OCCc2c1[nH]c1c(Cl)ccc(Cl)c21 (centres unmarked) | 12
* CC[C@H](C)C1(CC(=O)O)OCCc2c1[nH]c1c(Cl)ccc(C#N)c21 (mixture of isomers) | 0.35

Incoming: For the compound shown here, CCCC1(CC(=O)O)OCCc2c1[nH]c1c(C)c(C(=O)NC)cc(C#N)c21 (centres unmarked) , give the reported IC50.
Outgoing: 0.97

Incoming: For CCC(C)C1(CC(=O)O)OCCc2c1[nH]c1c(Cl)ccc(Cl)c21 (centres unmarked) , what is its reported IC50?
Outgoing: 0.34

Incoming: Look up IC50: `CCC[C@@]1(CC(=O)O)OCCc2c1[nH]c1c(Cl)ccc(C#N)c21`
Outgoing: 11

----------
Biological target: NS5B from the BK strain (genotype 1b) (Hepatitis C virus genotype 1b, UniProt P26663)
Construct: NS5B from the BK strain (genotype 1b) is expressed in E. coli as a protein in which the 21 C-terminal amino acids are replaced; made in house; host or cells: E. coli
Experiment: Hepatitis C polymerase inhibition, NS5B BK strain, 33P-GTP filter assay
Format: biochemical
Details: Table 1A; NS5B BK strain; read-out: HCV pol BK IC50
assayEndpoint: IC50 (µM)
API: value field is a number in µM; no unit string.

Below, 4 molecules whose answers are already recorded.
* CCCCC1(CC(=O)O)OCCc2c1[nH]c1c(F)cc(F)c(Br)c21 (stereo not drawn) | 0.4
* CC(C)C1(CC(=O)O)OCCc2c1[nH]c1c(Cl)cc(Cl)c(Cl)c21 (stereo not drawn) | 0.6
* CCCC1(CC(=O)O)OCCc2c1n(C)c1c(Cl)ccc(Cl)c21 (stereo not drawn) | 7.6
* CCC1(CC(=O)O)OCCc2c1[nH]c1c(C)ccc(F)c21 (stereo not drawn) | 19.8

Next molecule, please.
Incoming: Given CCCC1(CC(=O)O)OCCc2c1[nH]c1c(C)ccc(C)c21 (stereo not drawn) , state its recorded IC50.
Outgoing: 8.3

----------
Reported inhibition at 20 µM is given for each of the following compounds.
Target: NS5B from the BK strain (genotype 1b) (Hepatitis C virus genotype 1b, UniProt P26663)
Construct: NS5B from the BK strain (genotype 1b) is expressed in E. coli as a protein in which the 21 C-terminal amino acids are replaced; made in house; host or cells: E. coli
Test: Hepatitis C polymerase inhibition, NS5B BK strain, 33P-GTP filter assay
Format: biochemical
Conditions: Table 1A; 20 μM compound; read-out: HCV pol % inh at 20 μM
Give the value, in units of %, as a plain number.

* CCC1(CC(=O)O)OCCc2c1[nH]c1c(Br)ccc(Br)c21 (stereo not drawn) | 87
* CCC1(CC(=O)O)OCCc2c1[nH]c1c(C)ccc(F)c21 (stereo not drawn) | 39
* CCCCC1(CC(=O)O)OCCc2c1[nH]c1c(Cl)cc(C)c(Br)c21 (stereo not drawn) | 70
* CC(C)C1(CC(=O)O)OCCc2c1[nH]c1cccc(C#N)c21 (stereo not drawn) | 23
* CCCCC1(CC(=O)O)OCCc2c1[nH]c1c(Cl)ccc(C(F)(F)F)c21 (stereo not drawn) | 88
* CCC1(CC(=O)O)OCCc2c1[nH]c1c(Cl)cc(Cl)c(Cl)c21 (stereo not drawn) | 84

Incoming: Request: inhibition at 20 µM, test system NS5B from the BK strain (genotype 1b) (Hepatitis C virus genotype 1b, UniProt P26663), entry CC(C)C1(CC(=O)O)OCCc2c1[nH]c1c(Cl)ccc(Cl)c21 (stereo not drawn)
Outgoing: 84

Incoming: Please state recorded inhibition at 20 µM (tested on NS5B from the BK strain (genotype 1b) (Hepatitis C virus genotype 1b, UniProt P26663)) of Cc1cc(F)c2[nH]c3c(c2c1C#N)CCOC3(C)CC(=O)O (stereo not drawn)
Outgoing: 30

Incoming: Form: Entry = N#Cc1c(F)cc(F)c2[nH]c3c(c12)CCOC3(CC(=O)O)c1ccoc1 (stereo not drawn) | System = NS5B from the BK strain (genotype 1b) (Hepatitis C virus genotype 1b, UniProt P26663) | inhibition at 20 µM = ____
Outgoing: 55

Incoming: GET /values?readout=inhibition at 20 µM&system=NS5B from the BK strain (genotype 1b) (Hepatitis C virus genotype 1b, UniProt P26663)&item= CCC1(CC(=O)O)OCCc2c1[nH]c1c(Cl)cc(Cl)cc21 (stereo not drawn)
Outgoing: 54

Incoming: NS5B from the BK strain (genotype 1b) (Hepatitis C virus genotype 1b, UniProt P26663) / inhibition at 20 µM / CCCC1(CC(=O)O)OCCc2c1[nH]c1cccc(-c3ccc(SC)cc3)c21 (stereo not drawn) : value?
Outgoing: 15

Incoming: Identify the measured inhibition at 20 µM of CCCCC1(CC(=O)O)OCCc2c1[nH]c1c(C)ccc(F)c21 (stereo not drawn) for NS5B from the BK strain (genotype 1b) (Hepatitis C virus genotype 1b, UniProt P26663).
Outgoing: 73

Incoming: Write down the reported inhibition at 20 µM of N#Cc1cccc2[nH]c3c(c12)CCOC3(CC(=O)O)c1ccccc1F (stereo not drawn) , test system: NS5B from the BK strain (genotype 1b) (Hepatitis C virus genotype 1b, UniProt P26663).
Outgoing: 28

Incoming: Notebook entry, NS5B from the BK strain (genotype 1b) (Hepatitis C virus genotype 1b, UniProt P26663) assay: inhibition at 20 µM of CCCC1(CC(=O)O)OCCc2c1[nH]c1c(Br)ccc(Br)c21 (stereo not drawn) = ?
Outgoing: 89

Incoming: Find inhibition at 20 µM (NS5B from the BK strain (genotype 1b) (Hepatitis C virus genotype 1b, UniProt P26663)) for the entry CCCCC1(CC(=O)O)OCCc2c1[nH]c1c(F)cc(C)c(C#N)c21 (stereo not drawn)
Outgoing: 53

Incoming: Value wanted: inhibition at 20 µM (NS5B from the BK strain (genotype 1b) (Hepatitis C virus genotype 1b, UniProt P26663)) of entry CCC1(CC(=O)O)OCCc2c1[nH]c1c(Cl)ccc(C(F)(F)F)c21 (stereo not drawn)
Outgoing: 77

Incoming: Param readout= inhibition at 20 µM; system= NS5B from the BK strain (genotype 1b) (Hepatitis C virus genotype 1b, UniProt P26663); entry= CCCC1(CC(=O)O)OCCc2c1[nH]c1c(F)ccc(-c3cccc(N)c3)c21 (stereo not drawn) ; returns value.
Outgoing: 34
